Test system: Staphylococcus aureus
Assay: Antimicrobial activity against macrolide-sensitive Staphylococcus aureus PK1
Type: functional
Measure name: MIC (µg/mL)
Kindly provide the numeric value in µg/mL only, without the unit symbol.

CC[C@H]1OC(=O)[C@H](C)[C@@H](O[C@H]2C[C@@](C)(OC)[C@@H](OC(=O)CCN3CCN(c4cc5c(cc4F)c(=O)ccn5C4CC4)CC3)[C@H](C)O2)[C@H](C)[C@@H](O[C@@H]2O[C@H](C)C[C@H](N(C)C)[C@H]2O)[C@](C)(OC)C[C@@H](C)NC(=O)[C@H](C)[C@@H](O)[C@]1(C)O    8

Task: Please indicate MIC recorded for CC[C@H]1OC(=O)[C@H](C)[C@@H](O[C@H]2C[C@@](C)(OC)[C@@H](OC(=O)CCN3CCN(c4cc5c(cc4F)c(=O)c(C(=O)O)cn5C4CC4)CC3)[C@H](C)O2)[C@H](C)[C@@H](O[C@@H]2O[C@H](C)C[C@H](N(C)C)[C@H]2O)[C@](C)(OC)C[C@@H](C)NC(=O)[C@H](C)[C@@H](O)[C@]1(C)O
Output: 2

---

System: Streptococcus pyogenes
Experiment: Antimicrobial activity against macrolide-sensitive Streptococcus pyogenes 3665
Format: functional
# MIC per entry

Observe how each entry below is paired with its result.
CC[C@H]1OC(=O)[C@H](C)[C@@H](O[C@H]2C[C@@](C)(OC)[C@@H](OC(=O)CCN3CCN(C(=O)c4ccco4)CC3)[C@H](C)O2)[C@H](C)[C@@H](O[C@@H]2O[C@H](C)C[C@H](N(C)C)[C@H]2O)[C@](C)(OC)C[C@@H](C)NC(=O)[C@H](C)[C@@H](O)[C@]1(C)O    < 0.13 µg/mL
CC[C@H]1OC(=O)[C@H](C)[C@@H](O[C@H]2C[C@@](C)(OC)[C@@H](O)[C@H](C)O2)[C@H](C)[C@@H](O[C@@H]2O[C@H](C)C[C@H](N(C)C)[C@H]2O)[C@](C)(O)C[C@@H](C)NC(=O)[C@H](C)[C@@H](O)[C@]1(C)O    < 0.13 µg/mL

Task: Name the recorded MIC of the item CC[C@H]1OC(=O)[C@H](C)[C@@H](O[C@H]2C[C@@](C)(OC)[C@@H](OC(=O)CCNCC(=O)Nc3ccc4ccccc4c3)[C@H](C)O2)[C@H](C)[C@@H](O[C@@H]2O[C@H](C)C[C@H](N(C)C)[C@H]2O)[C@](C)(O)C[C@@H](C)NC(=O)[C@H](C)[C@@H](O)[C@]1(C)O in your answer.
Output: < 0.13 µg/mL

---

Tested on: Streptococcus pneumoniae
Test: Antimicrobial activity against macrolide-resistant Streptococcus pneumoniae Ci137
Type: functional
Measure name: MIC (µg/mL)
Write the answer as a number in µg/mL, unit excluded.

Field: example entries. Status: answers known.
CC[C@H]1OC(=O)[C@H](C)[C@@H](O[C@H]2C[C@@](C)(OC)[C@@H](OC(=O)CCNCCNc3cncc([N+](=O)[O-])c3)[C@H](C)O2)[C@H](C)[C@@H](O[C@@H]2O[C@H](C)C[C@H](N(C)C)[C@H]2O)[C@](C)(OC)C[C@@H](C)NC(=O)[C@H](C)[C@@H](O)[C@]1(C)O    0.5
CC[C@H]1OC(=O)[C@H](C)[C@@H](O[C@H]2C[C@@](C)(OC)[C@@H](OC(=O)CCN3CCN(C(=O)c4ccco4)CC3)[C@H](C)O2)[C@H](C)[C@@H](O[C@@H]2O[C@H](C)C[C@H](N(C)C)[C@H]2O)[C@](C)(OC)C[C@@H](C)NC(=O)[C@H](C)[C@@H](O)[C@]1(C)O    2

Lab note: next compound to report on.
Task: Enter recorded MIC with Streptococcus pneumoniae for CC[C@H]1OC(=O)[C@H](C)[C@@H](O[C@H]2C[C@@](C)(OC)[C@@H](OC(=O)CCNCC(=O)Nc3ccc4ccccc4c3)[C@H](C)O2)[C@H](C)[C@@H](O[C@@H]2O[C@H](C)C[C@H](N(C)C)[C@H]2O)[C@](C)(O)C[C@@H](C)NC(=O)[C@H](C)[C@@H](O)[C@]1(C)O here.
Output: 2

---

Test system: Staphylococcus aureus
Test: Antimicrobial activity against macrolide-sensitive Staphylococcus aureus ATCC 13709
Type: functional
Reported MIC values for a set of compounds
Note: unit µg/mL is implicit; provide only the numeric part.

CC[C@H]1OC(=O)[C@H](C)[C@@H](O[C@H]2C[C@@](C)(OC)[C@@H](OC(=O)CCNCCNc3cccc4ccccc34)[C@H](C)O2)[C@H](C)[C@@H](O[C@@H]2O[C@H](C)C[C@H](N(C)C)[C@H]2O)[C@](C)(OC)C[C@@H](C)NC(=O)[C@H](C)[C@@H](O)[C@]1(C)O    1
CC[C@H]1OC(=O)[C@H](C)[C@@H](O[C@H]2C[C@@](C)(OC)[C@@H](OC(=O)CCN[C@@H](C)C(=O)Nc3ccc([N+](=O)[O-])cc3)[C@H](C)O2)[C@H](C)[C@@H](O[C@@H]2O[C@H](C)C[C@H](N(C)C)[C@H]2O)[C@](C)(OC)C[C@@H](C)NC(=O)[C@H](C)[C@@H](O)[C@]1(C)O    0.5

We now examine a further compound.
Task: Given the compound CC[C@H]1OC(=O)[C@H](C)[C@@H](O[C@H]2C[C@@](C)(OC)[C@@H](OC(=O)CCNCC(=O)Nc3ccc4ccccc4c3)[C@H](C)O2)[C@H](C)[C@@H](O[C@@H]2O[C@H](C)C[C@H](N(C)C)[C@H]2O)[C@](C)(OC)C[C@@H](C)NC(=O)[C@H](C)[C@@H](O)[C@]1(C)O , write its reported MIC.
Output: 1

---

Tested on: Staphylococcus aureus
Experiment: Antimicrobial activity against macrolide-sensitive Staphylococcus aureus ATCC 13709
Type: functional
Measure name: MIC (µg/mL)
Response body: numeric value in µg/mL, unit text excluded.

Task: Please list MIC recorded for the compound CC[C@H]1OC(=O)[C@H](C)[C@@H](O[C@H]2C[C@@](C)(OC)[C@@H](O)[C@H](C)O2)[C@H](C)[C@@H](O[C@@H]2O[C@H](C)C[C@H](N(C)C)[C@H]2O)[C@](C)(OC)C[C@@H](C)NC(=O)[C@H](C)[C@@H](O)[C@]1(C)O
Output: 0.5

Task: Identify measured MIC associated with CC[C@H]1OC(=O)[C@H](C)[C@@H](O[C@H]2C[C@@](C)(OC)[C@@H](OC(=O)CCN3CCN(C(=O)c4ccco4)CC3)[C@H](C)O2)[C@H](C)[C@@H](O[C@@H]2O[C@H](C)C[C@H](N(C)C)[C@H]2O)[C@](C)(O)C[C@@H](C)NC(=O)[C@H](C)[C@@H](O)[C@]1(C)O
Output: 4

---

Tested on: Streptococcus pneumoniae
Assay: Antimicrobial activity against inducible macrolide and constitutive lincosamide, streptogramin-resistant Streptococcus pneumoniae 58 Spain
Type: functional
As shown below, each of these compounds has a reported MIC value.

CC[C@H]1OC(=O)[C@H](C)[C@@H](O[C@H]2C[C@@](C)(OC)[C@@H](O)[C@H](C)O2)[C@H](C)[C@@H](O[C@@H]2O[C@H](C)C[C@H](N(C)C)[C@H]2O)[C@](C)(O)C[C@@H](C)NC(=O)[C@H](C)[C@@H](O)[C@]1(C)O    > 64 µg/mL
NCCNc1cc2c(cc1F)c(=O)c(C(=O)O)cn2C1CC1    > 64 µg/mL

Task: Hello, please tell me recorded MIC for this one: CC[C@H]1OC(=O)[C@H](C)C(=O)[C@H](C)[C@@H](O[C@@H]2O[C@H](C)C[C@H](N(C)C)[C@H]2O)[C@](C)(OC)C[C@@H](C)C(=O)[C@H](C)[C@H]2N(CCCCn3cnc(-c4cccnc4)c3)C(=O)O[C@]12C [TELITHROMYCIN]
Output: 0.25 µg/mL

---

Test system: Staphylococcus aureus
Assay: Antimicrobial activity against macrolide-sensitive Staphylococcus aureus ATCC 13709
Assay type: functional
Measure name: MIC (µg/mL)
Report as a plain number; the unit µg/mL is understood.

# count of solved cases: 6
CC[C@H]1OC(=O)[C@H](C)[C@@H](O[C@H]2C[C@@](C)(OC)[C@@H](OC(=O)CCN[C@@H](C)C(=O)Nc3ccc4ccccc4c3)[C@H](C)O2)[C@H](C)[C@@H](O[C@@H]2O[C@H](C)C[C@H](N(C)C)[C@H]2O)[C@](C)(O)C[C@@H](C)NC(=O)[C@H](C)[C@@H](O)[C@]1(C)O    2
CC[C@H]1OC(=O)[C@H](C)[C@@H](O[C@H]2C[C@@](C)(OC)[C@@H](O)[C@H](C)O2)[C@H](C)[C@@H](O[C@@H]2O[C@H](C)C[C@H](N(C)C)[C@H]2O)[C@](C)(O)C[C@@H](C)NC(=O)[C@H](C)[C@@H](O)[C@]1(C)O    1
CC[C@H]1OC(=O)[C@H](C)[C@@H](O[C@H]2C[C@@](C)(OC)[C@@H](OC(=O)CCN3CCN(c4cc5c(cc4F)c(=O)c(C(=O)O)cn5C4CC4)CC3)[C@H](C)O2)[C@H](C)[C@@H](O[C@@H]2O[C@H](C)C[C@H](N(C)C)[C@H]2O)[C@](C)(OC)C[C@@H](C)NC(=O)[C@H](C)[C@@H](O)[C@]1(C)O    1
CC[C@H]1OC(=O)[C@H](C)[C@@H](O[C@H]2C[C@@](C)(OC)[C@@H](OC(=O)CCN[C@@H](C)C(=O)Nc3ccc([N+](=O)[O-])cc3)[C@H](C)O2)[C@H](C)[C@@H](O[C@@H]2O[C@H](C)C[C@H](N(C)C)[C@H]2O)[C@](C)(O)C[C@@H](C)NC(=O)[C@H](C)[C@@H](O)[C@]1(C)O    4
CC[C@H]1OC(=O)[C@H](C)[C@@H](O[C@H]2C[C@@](C)(OC)[C@@H](OC(=O)CCN3CCN(c4ccc([N+](=O)[O-])cc4)CC3)[C@H](C)O2)[C@H](C)[C@@H](O[C@@H]2O[C@H](C)C[C@H](N(C)C)[C@H]2O)[C@](C)(OC)C[C@@H](C)NC(=O)[C@H](C)[C@@H](O)[C@]1(C)O    2
CC[C@H]1OC(=O)[C@H](C)[C@@H](O[C@H]2C[C@@](C)(OC)[C@@H](OC(=O)CCN[C@H](C)c3ccc([N+](=O)[O-])cc3)[C@H](C)O2)[C@H](C)[C@@H](O[C@@H]2O[C@H](C)C[C@H](N(C)C)[C@H]2O)[C@](C)(O)C[C@@H](C)NC(=O)[C@H](C)[C@@H](O)[C@]1(C)O    4

# ---- query compound ----
Task: Provide the reported MIC (system: Staphylococcus aureus) for CC[C@H]1OC(=O)[C@H](C)[C@@H](O[C@H]2C[C@@](C)(OC)[C@@H](OC(=O)CCNCC(=O)Nc3ccc4cccnc4c3)[C@H](C)O2)[C@H](C)[C@@H](O[C@@H]2O[C@H](C)C[C@H](N(C)C)[C@H]2O)[C@](C)(OC)C[C@@H](C)NC(=O)[C@H](C)[C@@H](O)[C@]1(C)O
Output: 2
